MEASURED_ON: T1, cynomolgus EpCAM protein (cynomolgus monkey)
T1 construct: biotinylated in the Octet assays; also called cy EpCAM; cynomolgus monkey EpCAM
EXPERIMENT_DESCRIPTION: colorimetric ELISA
MEASURED_PARAMETER: ELISA absorbance (absorbance)
Answers are plain numbers, in absorbance.

# BINDER, ELISA absorbance, absorbance
measured = [
    ("Llama anti-EpCAM single domain antibody EPL49 (VHH, E. coli periplasmic extract) VHH: QVQLQESGGGLVQAGGSLRLSCAPSGRTSSIFGMGWFRQAPGKEREFVASINWSGGSTSYADSVKGRFTISRDNAKNEMYLQMNSLKFEDTAVYVCAAAVLTNKPSWNFWGQGTQVTVSS", 0.6),
    ("Llama anti-EpCAM single domain antibody EPL31 (VHH, E. coli periplasmic extract) VHH: QVQLQESGGGLVHTGGSLRLSCAASGDTFLRYAMGWFRQAPGKEREFVAAITWNGGNTDYAGSLKGRFTISRDNTKNTVYLQMNSLKPEDTAVYYCAADLTFGLASSHYQYDYWGQGTQVTVSS", 0.5),
    ("Llama anti-EpCAM single domain antibody EPL74 (VHH, E. coli periplasmic extract) VHH: QVQLQESGGGLVQAGGSLRLSCAASGSIFGINAMGWYRQAPGKQRESVAFITIGGNTNYLDSVKGRFTISRDNAKNTVYLQMNGLKPEDTAVYYCNTNPPLILTAGGLYWGQGTQVTVSS", 0.7),
    ("Llama anti-EpCAM single domain antibody EPL127 (VHH, E. coli periplasmic extract) VHH: QVQLQESGGGLVQAGGSLRLSCAAPGFAFNDHAILWFRQAPGKEREGVSEICRDGTTYYTDSVKGRFTISSDNAKNTVYLQMNSVKTDDTAVYYCAVDRRRYYCSGNRAFSSDYYYWGQGTQVTVSS", 0.9),
    ("Llama anti-EpCAM single domain antibody EPL78 (VHH, E. coli periplasmic extract) VHH: QVQLQESGGGLVQPGGSLRLSCATSANRFNINVMGWYRQAPGQQRELVATINIGGSTDYADSVKGRFTISRDNAKNTVYLQLSDLKPEDTAVYYCNVKLRVSGPTGPNVYWGQGTQVTVSS", 2),
    ("Llama anti-EpCAM single domain antibody EPL34 (VHH, E. coli periplasmic extract) VHH: QVQLQESGGGSVQAGGSLRLSCAASGFTFSSYYMSWVRQAPGKGLEWVSGIHYTGDWTNYADSVKGRFTISRDNAKNELYLEMNNLKPEDTAVYYCARGSDKGQGTQVTVSS", 3.1),
    ("Llama anti-EpCAM single domain antibody EPL97 (VHH, E. coli periplasmic extract) VHH: QVQLQESGGGLVQAGGSLRLSCAASGIIFRGTTMGWFRQAPGKQRESVASISPLGTTSYSGSVEGRFTVSRDNAKNTLFLQMNSLKSEDTAVYYCNAIQVTNVGPRVYWGQGTQVTVSS", 1.7),
    ("Llama anti-EpCAM single domain antibody EPL83 (VHH, E. coli periplasmic extract) VHH: QVQLQESGGGLVQAGGSLRLSCAVSGSIFSLNTLAWYRQAPGRQRDLIARITGGGTTVYADSVKGRFTISRDNAKNTVYLQMNSLKPEDTAVYYCNLMVRHPSGSTYEYWGQGTQVTVSS", 1.1),
]

Parameter requested: ELISA absorbance. Apply to each item below.
1. Llama anti-EpCAM single domain antibody EPL60 (VHH, E. coli periplasmic extract) VHH: QVQLQESGGGLVQAGGSLRLSCAASEYILSMYRMAWYRQAPGKVRELVADMSSGGTTNYADFVKGRFTISRDNDRNTVYLQMNRLQPEDTAAYYCNVAGRTGPPSYDAFNNWGQGTQVTVSS
2. Llama anti-EpCAM single domain antibody EPL10 (VHH, E. coli periplasmic extract) VHH: QVQLQESGGGLVQAGGSLRLSCAASGSVFRANVMGWYRQAPGKQHELVARIDPGGTTTYADPVKGRFTISRDNAKKTVYLQMNSLKPDDTAVYYCNAIILLSGGPKDYWGQGTQVTVSS
3. Llama anti-EpCAM single domain antibody EPL13 (VHH, E. coli periplasmic extract) VHH: QVQLQESGGGLVQPGGSLRLSCAASGFAFGNHWMYWYRQAPGRGRELVASISSGGSTNYVDSVKGRFTISRDNARNTVYLQMYSLKPEDTAVYYCGTSDNWGQGTQVTVSS

3.5
2
4

Please look at the items below and tell me ELISA absorbance for each one, in order.
1. Llama anti-EpCAM single domain antibody EPL118 (VHH, E. coli periplasmic extract) VHH: QVQLQESGGGLVQAGGSLRLSCAASGFIFRAASMGWFRQSPGNERELVATVSSGDFTNYADSVKGRFTISRDNAKNTVYLQMNSLKPEDTAVYFCGATFVRSDGHHTIYGQGTQVTVSS
2. Llama anti-EpCAM single domain antibody EPL55 (VHH, E. coli periplasmic extract) VHH: QVQLQESGGGLVQAGGSLRLSCAASGDTFLRYAMGWFRQAPGKEREFVAAITWNGGNTDYAGSLKGRFTISRDNTKNTVYLQMNSLKPEDTAVYYCAADLTFGLASSHYQYDYWGQGTQVTVSS
3. Llama anti-EpCAM single domain antibody EPL57 (VHH, E. coli periplasmic extract) VHH: QVQLQESGGGLVHTGGSLRLSCAFSGDTFLRYAMGWFRQAPGKEREFVAAITWNGGNTDYADSLKGRFTISRDNTKNTVYLQMNSLRPEDTAVYYCAADLTFGLASSHYQYDYWGQGTQVTVSS
4. Llama anti-EpCAM single domain antibody EPL164 (VHH, E. coli periplasmic extract) VHH: QVQLQESGGGLVQAGGSLRLSCAASGFIFRAASMDWYRQSPGTQPELVATISSTGFTNYANSVKGRFTISRDNAKNTVYLQMNSLKPEDTAVYFCGATFLRSDGQHSIYGQGTQVTVSS

1. 2.9
2. 0.6
3. 3.4
4. 2.8
